# System: DMH-induced colon cancer
# Format: in vivo, Wistar rats
# condition: count in colon; 21 days treatment; 5-FU 10 mg/kg i.p., quercetin, QMJ-2, QMJ-5 100 mg/kg p.o.; DMH control 17 ± 1.7; mean ± SEM of six animals
Exercise: state measured Adenocarcinoma for each of the molecules provided.
Answers are plain numbers.

Cc1ccc(-c2oc3ccccc3c(=O)c2O)cc1 | 14

Consider the record given below.
The recorded Adenocarcinoma for entry O=c1c(O)c(-c2ccc(O)c(O)c2)oc2cc(O)cc(O)c12 [Quercetin, quercetin, reference compound] equals 15

====

Exercise: state measured IC50 for each of the molecules provided.
# experimental.target: recombinant human HDAC6 enzyme (Homo sapiens)
# Sequence (Q9UBN7 whole entry): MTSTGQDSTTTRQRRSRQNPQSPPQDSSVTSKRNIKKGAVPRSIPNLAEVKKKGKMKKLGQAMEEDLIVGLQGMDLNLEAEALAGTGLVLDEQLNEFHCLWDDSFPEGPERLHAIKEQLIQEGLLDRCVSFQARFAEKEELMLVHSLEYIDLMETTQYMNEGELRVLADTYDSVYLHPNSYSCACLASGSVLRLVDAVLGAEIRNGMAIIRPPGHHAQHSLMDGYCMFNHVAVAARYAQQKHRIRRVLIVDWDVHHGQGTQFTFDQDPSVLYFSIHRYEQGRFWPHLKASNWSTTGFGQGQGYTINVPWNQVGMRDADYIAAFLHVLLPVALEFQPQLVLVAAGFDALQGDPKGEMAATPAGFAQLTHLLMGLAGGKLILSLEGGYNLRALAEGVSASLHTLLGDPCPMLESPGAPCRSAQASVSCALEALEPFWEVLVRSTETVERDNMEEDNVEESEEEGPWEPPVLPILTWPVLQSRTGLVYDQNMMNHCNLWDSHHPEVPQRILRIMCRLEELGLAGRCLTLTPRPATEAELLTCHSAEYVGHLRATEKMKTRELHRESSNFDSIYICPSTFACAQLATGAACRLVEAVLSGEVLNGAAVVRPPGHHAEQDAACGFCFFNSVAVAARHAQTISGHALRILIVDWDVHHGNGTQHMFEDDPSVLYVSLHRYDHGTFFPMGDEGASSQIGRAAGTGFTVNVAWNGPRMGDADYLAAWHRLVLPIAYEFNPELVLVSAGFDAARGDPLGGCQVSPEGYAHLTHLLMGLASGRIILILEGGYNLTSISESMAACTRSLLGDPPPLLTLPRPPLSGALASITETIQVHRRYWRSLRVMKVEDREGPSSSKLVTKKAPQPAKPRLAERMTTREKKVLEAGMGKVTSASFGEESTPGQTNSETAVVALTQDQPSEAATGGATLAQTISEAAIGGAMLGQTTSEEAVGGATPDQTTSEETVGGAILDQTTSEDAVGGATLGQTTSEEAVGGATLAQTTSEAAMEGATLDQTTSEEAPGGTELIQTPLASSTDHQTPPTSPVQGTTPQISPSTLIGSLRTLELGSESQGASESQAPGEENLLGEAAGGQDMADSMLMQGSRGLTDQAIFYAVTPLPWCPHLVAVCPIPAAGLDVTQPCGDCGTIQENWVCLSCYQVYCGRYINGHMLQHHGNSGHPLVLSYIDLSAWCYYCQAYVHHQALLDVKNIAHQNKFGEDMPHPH
# protocol.description: HDAC6 enzyme inhibition assay
# condition: mean ± SEM of three experiments
Give bare numbers, in µM.

// below: answered molecules
Cc1ccc(-c2oc3cc(C)ccc3c(=O)c2O)cc1 [QMJ-5] | 163
O=c1c(O)c(-c2ccc(O)c(O)c2)oc2cc(O)cc(O)c12 [Quercetin, quercetin, reference compound] | 43.4

Consider the record given below.
The recorded IC50 for entry Cc1ccc(-c2oc3ccccc3c(=O)c2O)cc1 [QMJ-2] equals 165

====

# System: HDAC enzyme in HCT116 cells
# protocol.description: Whole cell HDAC inhibition assay
# Type: cell-based
# condition: Homo sapiens, HCT-116, HCT116, 18 h treatment, mean ± SEM of three experiments
Exercise: state measured log10 IC50 for each of the compounds provided.
Parameter value (number): base-10 log of IC50 in µM.

// below: answered compounds
Cc1ccc(-c2oc3cc(C)ccc3c(=O)c2O)cc1 [QMJ-5] | 1.85
CN(C)c1ccc(-c2oc3ccccc3c(=O)c2O)cc1 [QMJ-1] | 3.01
Cc1ccc(-c2oc3ccccc3c(=O)c2O)cc1 [QMJ-2] | 2.26

Here are 3 compounds. What values of log10 IC50 were reported for them?
1. O=c1c(O)c(-c2ccc(O)c(O)c2)oc2cc(O)cc(O)c12 [Quercetin, quercetin, reference compound]
2. Cc1ccc(-c2oc3ccc(C)cc3c(=O)c2O)cc1 [QMJ-4]
3. Cc1ccc2oc(-c3ccc(N(C)C)cc3)c(O)c(=O)c2c1 [QMJ-3]

Key:
[2.23, 3.00, 3.05]

The recorded log10 IC50 for entry COc1ccc2c(=O)c(O)c(-c3ccc(C)cc3)oc2c1 [QMJ-6] equals 2.99

====

Exercise: state measured IC50 for each of the molecules provided.
# experimental.target: recombinant human HDAC1 enzyme (Homo sapiens, UniProt Q13547)
# Construct: purchased Enzo Life Sciences, Inc. USA
# Sequence (Q13547 whole entry): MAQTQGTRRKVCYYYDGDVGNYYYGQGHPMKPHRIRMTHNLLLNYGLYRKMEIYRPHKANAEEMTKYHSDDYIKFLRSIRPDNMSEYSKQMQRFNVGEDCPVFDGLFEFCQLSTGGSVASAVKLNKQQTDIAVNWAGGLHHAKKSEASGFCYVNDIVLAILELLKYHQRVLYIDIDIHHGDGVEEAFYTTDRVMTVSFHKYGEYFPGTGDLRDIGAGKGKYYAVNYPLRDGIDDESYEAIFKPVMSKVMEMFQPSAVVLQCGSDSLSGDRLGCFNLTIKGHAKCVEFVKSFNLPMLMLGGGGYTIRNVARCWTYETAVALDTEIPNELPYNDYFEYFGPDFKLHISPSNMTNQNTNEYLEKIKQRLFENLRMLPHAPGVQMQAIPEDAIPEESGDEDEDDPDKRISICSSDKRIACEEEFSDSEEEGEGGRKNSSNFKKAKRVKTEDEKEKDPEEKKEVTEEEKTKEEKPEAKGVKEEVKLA
# protocol.description: HDAC1 enzyme inhibition assay
# Format: biochemical
# condition: mean ± SEM of three experiments; read-out: HDAC1 IC50
Answers are plain numbers, in µM.

Here are 2 molecules. What values of IC50 were reported for them?
1. Cc1ccc(-c2oc3ccccc3c(=O)c2O)cc1
2. Cc1ccc(-c2oc3cc(C)ccc3c(=O)c2O)cc1

Key:
[34.1, 47.7]

====

Exercise: state measured pIC50 for each of the molecules provided.
# experimental.target: recombinant human HDAC8 enzyme (Homo sapiens, UniProt Q9BY41)
# Construct: purchased Enzo Life Science, NY, USA BML-AK518
# Sequence (Q9BY41 whole entry): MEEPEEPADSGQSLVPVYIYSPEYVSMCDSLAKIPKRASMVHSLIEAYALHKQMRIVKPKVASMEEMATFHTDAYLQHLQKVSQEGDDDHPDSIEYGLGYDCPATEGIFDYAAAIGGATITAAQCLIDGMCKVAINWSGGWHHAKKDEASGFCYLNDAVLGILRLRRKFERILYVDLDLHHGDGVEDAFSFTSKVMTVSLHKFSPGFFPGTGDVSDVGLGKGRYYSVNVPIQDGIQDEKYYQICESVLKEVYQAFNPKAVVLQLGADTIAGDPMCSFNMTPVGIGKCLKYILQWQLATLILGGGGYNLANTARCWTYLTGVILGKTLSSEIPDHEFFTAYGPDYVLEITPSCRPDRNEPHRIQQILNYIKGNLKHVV
# protocol.description: HDAC8 enzyme inhibition assay
# Format: biochemical
# condition: mean ± SEM of three experiments
Give bare numbers, as −log10 of the molar value.

Cc1ccc(-c2oc3cc(C)ccc3c(=O)c2O)cc1 | 4.62
Cc1ccc(-c2oc3ccccc3c(=O)c2O)cc1 | 4.44

Consider the record given below.
# value of pIC50, recombinant human HDAC8 enzyme (Homo sapiens, UniProt Q9BY41), item O=c1c(O)c(-c2ccc(O)c(O)c2)oc2cc(O)cc(O)c12 [Quercetin, quercetin, reference compound] = 4.81
